Target Or Test System: Norepinephrine transporter (Rattus norvegicus)
Sequence (Q9WTR4 whole entry): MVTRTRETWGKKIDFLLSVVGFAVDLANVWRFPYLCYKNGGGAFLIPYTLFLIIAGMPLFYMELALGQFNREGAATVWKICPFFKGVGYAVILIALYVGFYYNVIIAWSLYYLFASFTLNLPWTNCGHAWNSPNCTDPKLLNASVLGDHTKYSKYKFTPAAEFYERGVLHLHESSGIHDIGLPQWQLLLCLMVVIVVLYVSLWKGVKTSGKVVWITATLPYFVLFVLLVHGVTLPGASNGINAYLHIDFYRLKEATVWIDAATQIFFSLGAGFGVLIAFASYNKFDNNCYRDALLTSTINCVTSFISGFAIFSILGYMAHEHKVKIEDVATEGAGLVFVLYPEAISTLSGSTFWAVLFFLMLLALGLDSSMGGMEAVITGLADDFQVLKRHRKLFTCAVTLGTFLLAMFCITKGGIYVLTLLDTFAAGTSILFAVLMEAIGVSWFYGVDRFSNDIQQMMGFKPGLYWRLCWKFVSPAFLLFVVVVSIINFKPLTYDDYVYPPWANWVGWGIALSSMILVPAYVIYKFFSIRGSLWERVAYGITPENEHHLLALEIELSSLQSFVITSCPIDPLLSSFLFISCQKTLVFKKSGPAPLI
Protocol Details: In vitro binding affinity was determined against NA (noradrenaline) reuptake site of rat in presence of [3H]nisoxetine radioligand
Friendly reminder: Ki below 0.06 µM is TRUE, at or above is FALSE.

[[record]]
compound = "NC1=NC(CC2=Cc3ccccc3CC2)CO1 (stereo not drawn)"
assigned_class = "FALSE"

[[record]]
compound = "COc1ccc2c(c1)C=C(CC1CN=CN1)CC2 (stereo not drawn)"
assigned_class = "FALSE"

[[record]]
compound = "CN[C@H](CC(C)C)C(=O)N[C@H]1C(=O)N[C@@H](CC(N)=O)C(=O)N[C@H]2C(=O)N[C@H]3C(=O)N[C@H](C(=O)N[C@H](C(=O)O)c4cc(O)cc(O)c4-c4cc3ccc4O)[C@H](O)c3ccc(c(Cl)c3)Oc3cc2cc(c3O[C@@H]2O[C@H](CO)[C@@H](O)[C@H](O)[C@H]2O[C@H]2C[C@](C)(N)[C@H](O)[C@H](C)O2)Oc2ccc(cc2Cl)[C@H]1O"
assigned_class = "TRUE"

[[record]]
compound = "C1=NC[C@@H](C2C[C@@]23CCc2ccccc2C3)N1 (stereo partly drawn)"
assigned_class = "FALSE"

[[record]]
compound = "Fc1cccc2c1C=C(CC1CN=CN1)CC2 (stereo not drawn)"
assigned_class = "FALSE"

[[record]]
compound = "C1=NCC(Cc2cc3ccccc3o2)N1 (stereo not drawn)"
assigned_class = "FALSE"

[[record]]
compound = "C1=NC[C@]2(CC[C@@H]3Cc4ccccc4C[C@H]3C2)N1 (relative stereo)"
assigned_class = "FALSE"

[[record]]
compound = "CC1(C)CC(CC2CN=CN2)=Cc2ccccc21 (stereo not drawn)"
assigned_class = "TRUE"


Data origin, for the record: ChEMBL document CHEMBL1134363
